Hi there, I'd appreciate the recorded growth for every entry that follows.
Test system: OVCAR-5 ovarian
EXPERIMENT: NCI-60 one-dose screen, 48 h (100 = growth as untreated, 0 = no growth, -100 = all killed)
CONDITION_INFO: 10 µM unless noted
This is part of a sample that, as a whole, favours compounds with a hit. Of some 83,000 tested, about 20% had one in any assay.
Reply with just the number (in %).

Input: Recorded growth of COc1ccc(/C=C2\Oc3cc(OCCN4CCC(Cc5ccccc5)CC4)ccc3C2=O)cc1OC , please.
Output: 93.4

Input: Recorded growth of Oc1ccc(CCl)c2cccnc12 , please.
Output: 88.4

Input: Recorded growth of COc1cc(C2CC(c3ccc(SC)cc3)=NN2C(C)=O)cc(OC)c1OC (stereo not given) , please.
Output: 100

Input: Recorded growth of CCN(CC)CCNc1nc2ccccc2c2c(=O)c3cc(Cl)ccc3sc12 , please.
Output: 81.6

Input: Recorded growth of Cc1ncc(C(=O)Nc2ccc(CN3CCN(C)CC3)c(C(F)(F)F)c2)cc1C#Cc1ccc(N)nc1 , please.
Output: 10.4

Input: Recorded growth of Cc1nc2ccccc2n1-c1ncnc2c1CC(C)c1ccccc1N2C (stereo not given) , please.
Output: 101

Input: Recorded growth of O=C(Nc1ccc(Cl)cc1F)c1cc(Cl)ccc1O , please.
Output: 19.7

Input: Recorded growth of Cc1ccc2nc(NC(=O)CSc3nc(Cl)c(C#N)c(-c4ccccc4)n3)sc2c1 , please.
Output: 104

Input: Recorded growth of NS(=O)(=O)c1ccc(N=Nc2ccc(-c3nn4cc(-c5ccccc5)nc4s3)cc2)cc1 , please.
Output: 103

Input: Recorded growth of CC(=O)c1ccc(Nc2nc(C(C)=O)c(C)s2)cc1 , please.
Output: 108

Input: Recorded growth of Cc1cccc(NCc2cn(-c3ccc(C(=O)O)cc3)nc2-c2ccc(C(=O)O)cc2)n1 , please.
Output: 95.2

Input: Recorded growth of COc1ccc2nc(NCCCNCCO)c3sc4ccc(F)cc4c(=O)c3c2c1 , please.
Output: 81.7

Input: Recorded growth of COc1cc(C(=O)c2cc(C)c3[nH]c4ccc(C)cc4c3c2C)cc(OC)c1OC , please.
Output: 41.7

Input: Recorded growth of COC(=O)C(Cc1ccccc1)NC(=O)NC(=O)NC(=O)CI (stereo not given) , please.
Output: 95.9

Input: Recorded growth of COc1cccc2c(=O)c3c(sc12)c(NCCCN)nc1ccccc13 , please.
Output: 77.9

Input: Recorded growth of Cc1cccc(OCC(O)CN2CCN(c3ccc(Cl)cc3)CC2)c1 (stereo not given) , please.
Output: 103

Input: Recorded growth of O=C(/C=C/c1sc(Cl)nc1Cl)c1ccc(F)cc1 , please.
Output: 104

Input: Recorded growth of COc1c(B(O)O)cc(F)cc1-c1nc2ccc3[nH]ncc3c2c2c1CCCC2 , please.
Output: 15.4

Input: Recorded growth of C=CCc1cc(C)ccc1NC(C(=O)NCC(=O)OC)c1ccccc1 (stereo not given) , please.
Output: 86.7

Input: Recorded growth of Cc1ccc(C(CC(=O)O)c2c(C)[nH][nH]c2=O)cc1 (stereo not given) , please.
Output: 106

###

System: A549/ATCC NSCLC
EXPERIMENT: NCI-60 one-dose screen, 48 h
CONDITION_INFO: 10 µM unless noted
About 83,000 compounds went through this panel and 20% of them were active in at least one assay; those are over-represented in the sample as a whole. Activity calls are given as the source filed them. The calls were made as follows: active = growth percent below 10; inactive = the rest.
Lab note: assign the record to one of yes for active, no for inactive

Input: Entry NCCCNc1nc2ccccc2c2c(=O)c3cc(C(F)(F)F)ccc3sc12 : call = ?
Output: yes

Input: Entry Cc1ccc(-c2nn(C)c(=O)c3noc(-c4ccc(C)cc4)c23)cc1 : call = ?
Output: no

Input: Entry C#Cc1cccc(NC(=O)Nc2ccccc2NC(=O)CCl)c1 : call = ?
Output: no

Input: Entry COC(=O)Nc1ccc(-c2nc(-c3cccc(OC)c3)c(-c3ccnc(Br)c3)[nH]2)cc1 : call = ?
Output: no

Input: Entry COc1ccc(C2C(C#N)=C(N)Oc3c2sc2c(C)cccc32)cc1 (stereo unspecified) : call = ?
Output: no

Input: Entry CCCCCCCCCCCCCCCCCCOc1ccccc1CC(=O)OCC[N+](CC)(CC)CC : call = ?
Output: no

Input: Entry CCOC(=O)c1sc2ncc(-c3ccc(C)cc3)n2c1C : call = ?
Output: no

Input: Entry Brc1c[n+](Cc2ccc3ccccc3c2)cn1Cc1ccc2ccccc2c1 : call = ?
Output: no

Input: Entry OC(COc1ccccc1Cl)CN1CCN(c2cccc(Cl)c2)CC1 (stereo unspecified) : call = ?
Output: no

Input: Entry CCCCNc1nc(NN2C(=O)c3cccc4cccc(c34)C2=O)nc(-n2cnc3ccccc32)n1 : call = ?
Output: no

Input: Entry COc1cc(C(=O)/C=C/c2sc(Cl)nc2Cl)cc(OC)c1OC : call = ?
Output: no

###

Test system: SW-620 colon
EXPERIMENT: NCI-60 one-dose screen, 48 h (100 = growth as untreated, 0 = no growth, -100 = all killed)
CONDITION_INFO: 10 µM unless noted
About 83,000 compounds went through this panel and 20% of them were active in at least one assay; those are over-represented in the sample as a whole.
Consider the cut-off 90%. If the recorded growth is strictly smaller, the label is true; if not, the label is false.

Input: Confirm or reject: growth of COc1ccc(C2=Nn3c(nnc3-c3cc(Cl)cc(Cl)c3Cl)SC2)cc1 lies strictly below 90%
Output: true

Input: Confirm or reject: growth of CN(C)CCCNc1nc2ccccc2c2c(=O)c3cc(F)ccc3sc12 lies strictly below 90%
Output: true

Input: Confirm or reject: growth of CCOC(=O)c1sc2ncc(-c3ccc(OC)cc3)n2c1C lies strictly below 90%
Output: false

Input: Confirm or reject: growth of CSc1nc2ccc(C)cc2cc1/C=N/O lies strictly below 90%
Output: true

Input: Confirm or reject: growth of CC([C@H]1CCC2C3CCC4C(=O)C(NC=O)=CC[C@]4(C)C3CC[C@@]21C)N(C)C (stereo not given in full) lies strictly below 90%
Output: true

Input: Confirm or reject: growth of Cc1ccc(C(=O)N/N=C/c2cccc(Oc3ccccc3)c2)cn1 lies strictly below 90%
Output: true

Input: Confirm or reject: growth of O=C(Nc1nc2ccc(F)cc2s1)c1cccnc1Nc1ccc(Cl)cc1Cl lies strictly below 90%
Output: true

Input: Confirm or reject: growth of Cc1nc2ccccc2c(/C=C/c2ccc(Cl)cc2)c1C(=O)/C=C/c1ccc(C(F)(F)F)cc1 lies strictly below 90%
Output: true

Input: Confirm or reject: growth of CC(=O)OC[C@H]1OC(Sc2sc(C(=O)c3ccc(Br)cc3)c(N)c2-c2nc3ccccc3s2)[C@H](OC(C)=O)[C@@H](OC(C)=O)[C@H]1OC(C)=O (stereo not given in full) lies strictly below 90%
Output: false

Input: Confirm or reject: growth of Cc1ccc2nc(NC(=O)CSc3nc(Cl)c(C#N)c(-c4ccccc4)n3)sc2c1 lies strictly below 90%
Output: false

Input: Confirm or reject: growth of O=c1ccc(N=Nc2ccccc2)ccc1Cl lies strictly below 90%
Output: true

Input: Confirm or reject: growth of O=C(O)c1cn(C2CC2)c2cc(N3CCN(C(=O)Nc4nc(-c5ccccc5)cs4)CC3)c(F)cc2c1=O lies strictly below 90%
Output: true

Input: Confirm or reject: growth of O=C(COc1ccc(/C=C2\Cc3ccc(Cl)cc3C2=O)cc1)Nc1nc2ccccc2s1 lies strictly below 90%
Output: false

Input: Confirm or reject: growth of O=S(=O)(NCCCNc1cc(-c2c(-c3cccc(O)c3)nc3sccn23)ccn1)c1cccc2ccccc12 lies strictly below 90%
Output: true

Input: Confirm or reject: growth of COc1ccc(/C=C2\Oc3cc(OCCN4CCC(Cc5ccccc5)CC4)ccc3C2=O)cc1OC lies strictly below 90%
Output: true

Input: Confirm or reject: growth of COc1ccc2c(c1)nc(NNC(=O)c1cnccn1)c1cccn12 lies strictly below 90%
Output: true

Input: Confirm or reject: growth of CCCCCCCNC(=O)CCCNc1ncnc2c1ncn2-c1cccc(C(C)O)c1 (stereo not given) lies strictly below 90%
Output: false

Input: Confirm or reject: growth of NCCCNc1nc2ccccc2c2c(=O)c3cc(C(F)(F)F)ccc3sc12 lies strictly below 90%
Output: true

Input: Confirm or reject: growth of COc1ccc(N)c(N)c1 lies strictly below 90%
Output: false

###

Test system: MDA-MB-231 breast
EXPERIMENT: NCI-60 one-dose screen, 48 h (100 = growth as untreated, 0 = no growth, -100 = all killed)
CONDITION_INFO: 10 µM unless noted
The panel holds about 83,000 compounds, 20% with a hit somewhere; the sample as a whole holds those more often.
PROPERTY_LABEL: growth (%)
Reply with just the number (in %).

Input: Recorded growth of CN(C)CCNc1nc2ccccc2c2c(=O)c3cc(F)ccc3sc12 , please.
Output: 6.88

Input: Recorded growth of CCCCCCCCCCCCCCCCCC1OCC(COC(=O)O[C@]2(CC)C(=O)OCc3c2cc2n(c3=O)Cc3cc4ccccc4nc3-2)O1 (stereo not given in full) , please.
Output: 93.1

Input: Recorded growth of COc1cc2cc(Oc3ccc(NC(=O)Nc4ccc(Cl)c(Cl)c4)cc3)c(C)nc2cc1OCCN1CCOCC1 , please.
Output: 97.1

Input: Recorded growth of COc1cc(C2CC(c3cccc(Br)c3)=NN2C(C)=O)cc(OC)c1OC (stereo not given) , please.
Output: 4.94

Input: Recorded growth of CCOc1ccc2nc(SCc3nc4n(n3)S(=O)(=O)c3ccccc3N4C)sc2c1 , please.
Output: 10.5

Input: Recorded growth of Cc1nc2ccccc2n1CC1C(=O)NC(=O)NC1=O , please.
Output: 114

Input: Recorded growth of c1ccc(CO[C@H]2CO[C@H]3[C@@H]2OC[C@@H]3Oc2ccc(Nc3ncnc4ccsc34)cc2)cc1 , please.
Output: 71.7

Input: Recorded growth of CCOC(=O)c1c(C)nc2c(c1N)CC(=O)N2Cc1ccc(F)cc1 , please.
Output: 97.9

Input: Recorded growth of CN1CCN(CC(=O)N2c3cccc4cccc(c34)N(C(=O)CN3CCN(C)CC3)C2c2cn(-c3ccccc3)nc2-c2cccc([N+](=O)[O-])c2)CC1 , please.
Output: -60.9

Input: Recorded growth of COc1cccc2nc3n(c12)C(c1c(F)cccc1F)SC3 (stereo not given) , please.
Output: 93.2

Input: Recorded growth of Cc1[nH]c(C(=O)Nc2ccc(C(=O)NCCN)cc2OC(C)C)c(Cl)c1Cl , please.
Output: -27

Input: Recorded growth of N#Cc1c(-c2ccccc2)nc(SCC(=O)Nc2nc(-c3ccc(Cl)cc3)cs2)[nH]c1=O , please.
Output: 120

Input: Recorded growth of CCCCn1c(-c2ccc(-c3nc(-c4ccc(Cl)cc4)no3)cc2)nc(-c2ccccc2)c1-c1ccccc1 , please.
Output: 79.9

Input: Recorded growth of COc1cc(/C=C2\C(=O)Nc3ccc(Br)cc32)cc(OC)c1OC , please.
Output: 65.5

Input: Recorded growth of COc1ccc(OC)c(/C=C/C(=O)N/N=C/c2ccccc2)c1 , please.
Output: 71.8

Input: Recorded growth of Brc1ccc2[nH]cc(-c3nc(-c4c[nH]c5ccncc45)cs3)c2c1 , please.
Output: -84.4

Input: Recorded growth of CCc1nnc(NC(=O)c2nnn(-c3ccccc3)c2-c2ccco2)s1 , please.
Output: 92.9

Input: Recorded growth of COc1ccc2nc(NC(=O)c3cccnc3Nc3ccc(S(N)(=O)=O)cc3)sc2c1 , please.
Output: 106

Input: Recorded growth of COc1ccc(OC)c(/C=C/C(=O)N/N=C/c2ccc(Cl)cc2)c1 , please.
Output: 28.1

Input: Recorded growth of CC([C@H]1CCC2C3CCC4C(=O)C(NC=O)=CC[C@]4(C)C3CC[C@@]21C)N(C)C (stereo not given in full) , please.
Output: 11.2

Input: Recorded growth of COc1cccc(-c2nc(-c3ccc(NC(=O)OC(C)C)cc3)[nH]c2-c2ccnc(Br)c2)c1 , please.
Output: 37.3

Input: Recorded growth of COc1cc(C(=O)/C=C/c2sc(Cl)nc2Cl)cc(OC)c1OC , please.
Output: 31.7

Input: Recorded growth of O=c1[nH][n+](-c2ccc(Br)cc2)no1 , please.
Output: 68.7

Input: Recorded growth of COc1ccc(N)c(N)c1 , please.
Output: 105

Input: Recorded growth of CCCCNC(=O)Oc1ccc(/C(=C(\C)c2ccc(Cl)cc2)c2ccc(OCCN3CCCCC3)cc2)cc1 , please.
Output: 94
